target: N-type Ca2+ channels in IMR-32 cells (Homo sapiens, UniProt Q00975); test: Inhibition of N-type calcium flux in IMR-32 cells (Indo-1 fluorescence, nitrendipine present); conditions: IMR-32 cells, 5 μM nitrendipine, K+ depolarization
Sequence (Q00975 whole entry): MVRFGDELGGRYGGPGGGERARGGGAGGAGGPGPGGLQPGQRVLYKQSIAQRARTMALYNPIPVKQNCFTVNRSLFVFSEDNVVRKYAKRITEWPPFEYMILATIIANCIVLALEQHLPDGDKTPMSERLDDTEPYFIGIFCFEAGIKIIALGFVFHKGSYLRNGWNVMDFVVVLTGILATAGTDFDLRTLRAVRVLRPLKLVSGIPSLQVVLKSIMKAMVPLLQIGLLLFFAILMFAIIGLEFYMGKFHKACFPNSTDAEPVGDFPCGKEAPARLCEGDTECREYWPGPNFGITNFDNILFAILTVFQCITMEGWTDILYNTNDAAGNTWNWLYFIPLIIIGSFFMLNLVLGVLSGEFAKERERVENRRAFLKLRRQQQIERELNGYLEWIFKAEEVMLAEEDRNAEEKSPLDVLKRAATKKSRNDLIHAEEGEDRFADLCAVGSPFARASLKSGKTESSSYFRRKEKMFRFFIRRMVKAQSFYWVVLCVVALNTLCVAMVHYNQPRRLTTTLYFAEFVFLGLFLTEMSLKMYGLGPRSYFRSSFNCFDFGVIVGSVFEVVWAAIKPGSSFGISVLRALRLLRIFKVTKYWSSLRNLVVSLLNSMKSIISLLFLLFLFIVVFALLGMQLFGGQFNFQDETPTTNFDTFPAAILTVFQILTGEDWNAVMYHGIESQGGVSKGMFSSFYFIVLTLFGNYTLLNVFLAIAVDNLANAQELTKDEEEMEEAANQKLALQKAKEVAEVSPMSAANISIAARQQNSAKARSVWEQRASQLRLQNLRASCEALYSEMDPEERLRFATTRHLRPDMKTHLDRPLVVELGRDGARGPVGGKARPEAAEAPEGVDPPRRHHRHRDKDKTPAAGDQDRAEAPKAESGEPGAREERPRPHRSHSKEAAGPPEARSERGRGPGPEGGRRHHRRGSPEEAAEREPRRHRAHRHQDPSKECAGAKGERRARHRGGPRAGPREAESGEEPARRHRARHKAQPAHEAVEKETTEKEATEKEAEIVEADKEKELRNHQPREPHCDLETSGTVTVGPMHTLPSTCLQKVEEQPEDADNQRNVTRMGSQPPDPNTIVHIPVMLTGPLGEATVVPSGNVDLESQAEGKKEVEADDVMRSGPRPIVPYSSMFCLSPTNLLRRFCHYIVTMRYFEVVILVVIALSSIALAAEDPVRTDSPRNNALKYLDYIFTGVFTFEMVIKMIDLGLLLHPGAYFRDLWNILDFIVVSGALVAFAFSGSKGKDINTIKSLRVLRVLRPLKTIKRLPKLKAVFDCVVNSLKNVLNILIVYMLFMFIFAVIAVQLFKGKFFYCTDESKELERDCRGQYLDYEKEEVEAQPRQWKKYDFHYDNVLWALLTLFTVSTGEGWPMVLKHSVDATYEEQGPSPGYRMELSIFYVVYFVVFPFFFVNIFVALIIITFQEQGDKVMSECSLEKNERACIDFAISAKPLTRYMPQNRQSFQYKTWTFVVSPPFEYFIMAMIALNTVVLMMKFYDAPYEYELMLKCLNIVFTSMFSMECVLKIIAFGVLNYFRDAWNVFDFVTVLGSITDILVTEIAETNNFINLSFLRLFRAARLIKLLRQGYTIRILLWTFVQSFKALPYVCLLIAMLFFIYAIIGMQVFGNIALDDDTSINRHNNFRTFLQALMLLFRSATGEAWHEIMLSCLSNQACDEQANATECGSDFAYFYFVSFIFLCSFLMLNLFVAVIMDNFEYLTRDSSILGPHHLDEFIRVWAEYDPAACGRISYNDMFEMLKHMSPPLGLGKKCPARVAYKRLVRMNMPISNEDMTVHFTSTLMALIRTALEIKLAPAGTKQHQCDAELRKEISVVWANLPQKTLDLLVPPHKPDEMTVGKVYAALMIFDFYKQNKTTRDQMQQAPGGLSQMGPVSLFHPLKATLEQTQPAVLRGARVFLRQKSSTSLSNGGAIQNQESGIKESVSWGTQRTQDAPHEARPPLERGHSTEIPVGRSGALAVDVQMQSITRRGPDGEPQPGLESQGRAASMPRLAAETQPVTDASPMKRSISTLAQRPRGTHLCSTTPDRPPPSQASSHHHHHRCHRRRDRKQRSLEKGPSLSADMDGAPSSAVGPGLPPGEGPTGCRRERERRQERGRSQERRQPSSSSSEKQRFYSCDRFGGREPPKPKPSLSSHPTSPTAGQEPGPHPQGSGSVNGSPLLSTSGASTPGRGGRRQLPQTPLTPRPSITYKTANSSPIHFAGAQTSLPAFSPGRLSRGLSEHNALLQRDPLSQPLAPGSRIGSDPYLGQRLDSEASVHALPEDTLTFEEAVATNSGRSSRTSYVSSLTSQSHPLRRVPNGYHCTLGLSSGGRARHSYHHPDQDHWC
Sequence (P54289 25-956 partner limits assumed): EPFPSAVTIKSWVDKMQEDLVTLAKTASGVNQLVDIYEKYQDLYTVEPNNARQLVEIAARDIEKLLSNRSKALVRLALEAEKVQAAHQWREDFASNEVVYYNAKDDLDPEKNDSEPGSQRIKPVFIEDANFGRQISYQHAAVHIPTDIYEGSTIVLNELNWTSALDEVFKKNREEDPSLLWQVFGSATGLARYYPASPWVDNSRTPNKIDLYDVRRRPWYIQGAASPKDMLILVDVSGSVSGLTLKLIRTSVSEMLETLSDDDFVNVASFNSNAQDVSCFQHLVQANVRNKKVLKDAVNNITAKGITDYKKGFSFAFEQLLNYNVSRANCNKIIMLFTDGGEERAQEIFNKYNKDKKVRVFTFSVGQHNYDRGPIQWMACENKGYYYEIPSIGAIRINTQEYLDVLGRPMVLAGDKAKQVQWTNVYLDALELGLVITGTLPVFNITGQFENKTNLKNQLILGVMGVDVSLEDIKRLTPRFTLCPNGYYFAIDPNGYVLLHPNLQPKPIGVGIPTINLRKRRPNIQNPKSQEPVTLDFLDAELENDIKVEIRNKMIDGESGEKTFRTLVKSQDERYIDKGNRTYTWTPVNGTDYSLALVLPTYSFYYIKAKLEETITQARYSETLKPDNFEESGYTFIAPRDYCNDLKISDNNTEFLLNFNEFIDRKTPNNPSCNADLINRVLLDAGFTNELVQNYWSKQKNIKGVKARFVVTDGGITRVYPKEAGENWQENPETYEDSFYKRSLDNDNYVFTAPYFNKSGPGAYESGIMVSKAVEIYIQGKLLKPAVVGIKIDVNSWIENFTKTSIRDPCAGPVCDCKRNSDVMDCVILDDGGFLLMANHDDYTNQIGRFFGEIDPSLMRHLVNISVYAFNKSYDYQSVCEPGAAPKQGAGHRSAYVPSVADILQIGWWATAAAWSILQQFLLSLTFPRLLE
Sequence (P54289 957-1103 partner limits assumed): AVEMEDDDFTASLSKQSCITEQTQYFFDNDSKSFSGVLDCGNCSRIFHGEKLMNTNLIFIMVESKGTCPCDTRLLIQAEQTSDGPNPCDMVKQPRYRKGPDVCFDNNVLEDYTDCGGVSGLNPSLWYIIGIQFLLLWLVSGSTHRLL
Sequence (P54284 whole entry partner): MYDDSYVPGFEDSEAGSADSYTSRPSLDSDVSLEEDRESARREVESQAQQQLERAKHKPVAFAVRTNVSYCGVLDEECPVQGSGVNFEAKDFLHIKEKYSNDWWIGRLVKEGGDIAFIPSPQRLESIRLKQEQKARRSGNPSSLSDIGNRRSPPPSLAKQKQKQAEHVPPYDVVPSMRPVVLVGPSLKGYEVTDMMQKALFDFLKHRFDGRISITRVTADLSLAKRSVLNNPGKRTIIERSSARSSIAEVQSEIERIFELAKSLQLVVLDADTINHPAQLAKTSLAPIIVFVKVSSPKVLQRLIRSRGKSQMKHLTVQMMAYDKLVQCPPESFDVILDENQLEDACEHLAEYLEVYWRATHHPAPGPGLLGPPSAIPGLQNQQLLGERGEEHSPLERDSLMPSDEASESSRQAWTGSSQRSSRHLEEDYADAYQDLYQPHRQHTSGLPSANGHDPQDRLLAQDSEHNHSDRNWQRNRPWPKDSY
Please provide measured IC50 for the entries that follow.
Response body: numeric value in nM, unit text excluded.

Problem: Field request: IC50 | item: CC(C)CC(NC(=O)N1CCCCCC1)C(=O)NC(Cc1ccc(OCc2ccccc2)cc1)C(=O)NCC1CCN(Cc2ccccc2)C1 (stereo not drawn) [Example 250]
Result: 270

Problem: Need IC50 of CC(C)C[C@H](NC(=O)N1CCCCCC1)C(=O)N[C@@H](Cc1ccc(OCc2ccc(C#N)cc2)cc1)C(=O)OC(C)(C)C [Example 27] , thanks.
Result: 810

Problem: Would you kindly share the measured IC50 for CC(C)C[C@H](NC(=O)N1CCCCCC1)C(=O)N[C@@H](Cc1ccc(OCc2ccccc2)cc1)C(=O)NC1CCN(Cc2ccccc2)CC1 [Example 271] ?
Result: 840

Problem: Give its IC50 value. Item: CC(C)C[C@H](NC(=O)N1CCCCCC1)C(=O)N[C@@H](Cc1ccc(OCc2ccccc2)cc1)C(=O)N(CCO)Cc1ccccc1 [Example 251]
Result: 740

Problem: I'd like to know its IC50. The compound in question is CC(C)C[C@H](NC(=O)N1CCCCCC1)C(=O)N[C@@H](Cc1ccc(OCc2ccccc2)cc1)C(=O)Nc1ccc(CCO)cc1 [Example 211]
Result: 1100

Problem: So what's the measured IC50 for this one? CC(C)C[C@H](NC(=O)N1CCCCCC1)C(=O)N[C@](C)(Cc1ccc(OCc2ccccc2)cc1)C(=O)OC(C)(C)C [Example 11B]
Result: 2300

====

Target: N-type Ca2+ channels in IMR-32 cells (Homo sapiens)
Construct: host or cells: IMR-32 cells, differentiated with dibutyryl cAMP and bromodeoxyuridine
Experiment: Inhibition of N-type calcium flux in IMR-32 cells (Indo-1 fluorescence, nitrendipine present)
Type: cell-based
Settings: 1 μM
Protocol: Measurement of N-type Ca^2+ Channel Blocking Potencies of Compounds in IMR-32 Cells Using the Fluorescent Ca^2+ Indicator Indo-1 IMR-32 cells are a human tumoral cell line of neural origin. […] Calcium flux into these cells may be induced by stimulation with elevated potassium concentrations. The L-channel component of calcium flux may be blocked by adding 5 μM nitrendipine. […] Intracellular calcium concentrations are measured using the fluorescent calcium indicator Indo 1. […]
Provide the recorded Inhibition of Calcium Flux in IMR-32 Cells % Inhibition at 1 μM for the entries that follow.
The answer is to be given in %; state only the numeric part.

Problem: Inhibition of Calcium Flux in IMR-32 Cells % Inhibition at 1 μM for CC(C)C[C@H](NC(=O)Nc1ccccc1Cl)C(=O)N[C@@H](Cc1ccc(OCc2ccccc2)cc1)C(=O)OC(C)(C)C (relative stereo) [Example 73] ?
Result: 60

Problem: Please look up its Inhibition of Calcium Flux in IMR-32 Cells % Inhibition at 1 μM: CC(C)C[C@H](NC(=O)Nc1ccccc1)C(=O)N[C@@H](Cc1ccc(OCc2ccccc2)cc1)C(=O)OC(C)(C)C (relative stereo) [Example 54]
Result: 44

Problem: Quick one: Inhibition of Calcium Flux in IMR-32 Cells % Inhibition at 1 μM for CCC(CO)NC(=O)[C@H](Cc1ccc(OCc2ccccc2)cc1)NC(=O)[C@H](CC(C)C)NC(=O)N1CCCCCC1 (relative stereo) [Example 226] ?
Result: 37

Problem: Which Inhibition of Calcium Flux in IMR-32 Cells % Inhibition at 1 μM is listed for CC(C)C[C@H](NC(=O)Nc1cc(Cl)cc(Cl)c1)C(=O)N[C@@H](Cc1ccc(OCc2ccccc2)cc1)C(=O)OC(C)(C)C (relative stereo) [Example 86] ?
Result: 40

Problem: Would you mind telling me what Inhibition of Calcium Flux in IMR-32 Cells % Inhibition at 1 μM value was observed for CC(C)C[C@H](NC(=O)N1CCCCCC1)C(=O)N[C@@H](Cc1ccc(OCc2c(Cl)cccc2Cl)cc1)C(=O)NC(C)(C)C (relative stereo) [Example 52] ?
Result: 56

Problem: Fill in the blank: the reported Inhibition of Calcium Flux in IMR-32 Cells % Inhibition at 1 μM of CCOC(=O)c1ccc(NC(=O)N[C@@H](CC(C)C)C(=O)N[C@@H](Cc2ccc(OCc3ccccc3)cc2)C(=O)OC(C)(C)C)cc1 (relative stereo) [Example 77] is ____.
Result: 22

Problem: Query: Inhibition of Calcium Flux in IMR-32 Cells % Inhibition at 1 μM; subject: COC(=O)[C@H](Cc1ccc(OC(C)(C)C)cc1)NC(=O)[C@H](CC(C)C)NC(=O)N1CCCCCC1 (relative stereo) [Example 22]
Result: 29

Problem: Sample COc1ccc(S(=O)(=O)N[C@@H](CC(C)C)C(=O)N[C@@H](Cc2ccc(OCc3ccccc3)cc2)C(=O)OC(C)(C)C)cc1 (relative stereo) [Example 103] — what was its Inhibition of Calcium Flux in IMR-32 Cells % Inhibition at 1 μM?
Result: 28

Problem: Can you look up the measured Inhibition of Calcium Flux in IMR-32 Cells % Inhibition at 1 μM of CC(C)C[C@H](NC(=O)Nc1ccc(C(F)(F)F)cc1)C(=O)N[C@@H](Cc1ccc(OCc2ccccc2)cc1)C(=O)OC(C)(C)C (relative stereo) [Example 70] for me?
Result: 25

Problem: Could you share which Inhibition of Calcium Flux in IMR-32 Cells % Inhibition at 1 μM value was measured for CC(C)C[C@H](NC(=O)N1CCN(C)CC1)C(=O)N[C@@H](Cc1ccc(OCc2ccccc2)cc1)C(=O)OC(C)(C)C (relative stereo) [Example 9] ?
Result: 28

Problem: Dear colleague, I am looking for the recorded Inhibition of Calcium Flux in IMR-32 Cells % Inhibition at 1 μM of the following molecule: CC(C)C[C@H](NC(=O)Nc1ccc(F)cc1F)C(=O)N[C@@H](Cc1ccc(OCc2ccccc2)cc1)C(=O)OC(C)(C)C (relative stereo) [Example 69]
Result: 31

Problem: Endpoint output: Inhibition of Calcium Flux in IMR-32 Cells % Inhibition at 1 μM of CCOc1ccc(C(=O)N[C@@H](CC(C)C)C(=O)N[C@@H](Cc2ccc(OCc3ccccc3)cc2)C(=O)OC(C)(C)C)cc1 (relative stereo) [Example 91] . Value?
Result: 34

Problem: Looking for the measured Inhibition of Calcium Flux in IMR-32 Cells % Inhibition at 1 μM of COc1ccccc1C(=O)N[C@@H](CC(C)C)C(=O)N[C@@H](Cc1ccc(OCc2ccccc2)cc1)C(=O)OC(C)(C)C (relative stereo) [Example 98] , can you help?
Result: 34

Problem: Consider the molecule CC(C)C[C@H](NC(=O)NC1CCCCC1)C(=O)N[C@@H](Cc1ccc(OCc2ccccc2)cc1)C(=O)OC(C)(C)C (relative stereo) [Example 56] and give its measured Inhibition of Calcium Flux in IMR-32 Cells % Inhibition at 1 μM.
Result: 24

Problem: Return reported Inhibition of Calcium Flux in IMR-32 Cells % Inhibition at 1 μM; argument: CC(C)C[C@H](NC(=O)N1CCCCCC1)C(=O)N[C@@H](Cc1ccc(OCc2cccc(N)c2)cc1)C(=O)OC(C)(C)C (relative stereo) [Example 29]
Result: 43

Problem: What value of Inhibition of Calcium Flux in IMR-32 Cells % Inhibition at 1 μM has been reported for the following molecule? COc1ccc(C(=O)N[C@@H](CC(C)C)C(=O)N[C@@H](Cc2ccc(OCc3ccccc3)cc2)C(=O)OC(C)(C)C)cc1 (relative stereo) [Example 95]
Result: 27

Problem: What value of measured Inhibition of Calcium Flux in IMR-32 Cells % Inhibition at 1 μM is listed for CC(=O)N[C@H]1CCN(C(=O)[C@H](Cc2ccc(OCc3ccccc3)cc2)NC(=O)[C@H](CC(C)C)NC(=O)N2CCCCCC2)C1 [Example 244] ?
Result: 24

Problem: Quick check: Inhibition of Calcium Flux in IMR-32 Cells % Inhibition at 1 μM of CC(C)C[C@H](NC(=S)Nc1ccc(C(C)C)cc1)C(=O)N[C@@H](Cc1ccc(OCc2ccccc2)cc1)C(=O)OC(C)(C)C (relative stereo) [Example 43] ?
Result: 17

Problem: Would you kindly share the measured Inhibition of Calcium Flux in IMR-32 Cells % Inhibition at 1 μM for CC(C)C[C@H](NC(=O)N1CCCCCC1)C(=O)N[C@@H](Cc1ccc(C#Cc2ccccc2)cc1)C(=O)NC(C)(C)C (relative stereo) [Example 134] ?
Result: 29

Problem: I am curious: what Inhibition of Calcium Flux in IMR-32 Cells % Inhibition at 1 μM value has been reported for CC(C)(C)OC(=O)[C@H](Cc1ccc(OCc2ccccc2)cc1)NC(=O)CNC(=O)N1CCCCCC1 (stereo in doubt) [Example 8] ?
Result: 29

Problem: May I ask what Inhibition of Calcium Flux in IMR-32 Cells % Inhibition at 1 μM has been recorded for CC(C)C[C@H](NC(=O)N1CCCCCC1)C(=O)N[C@@H](Cc1ccc(OCc2ccccc2)cc1)C(=O)Nc1ccc(N(C)C)cc1 (relative stereo) [Example 215] ?
Result: 35

Problem: Find the recorded Inhibition of Calcium Flux in IMR-32 Cells % Inhibition at 1 μM belonging to CC(C)C[C@H](NC(=O)c1ccc2ccccc2c1)C(=O)N[C@@H](Cc1ccc(OCc2ccccc2)cc1)C(=O)OC(C)(C)C (relative stereo) [Example 99] and report it.
Result: 19

Problem: Please look up its Inhibition of Calcium Flux in IMR-32 Cells % Inhibition at 1 μM: CSc1ccc(NC(=O)N[C@@H](CC(C)C)C(=O)N[C@@H](Cc2ccc(OCc3ccccc3)cc2)C(=O)OC(C)(C)C)cc1 (relative stereo) [Example 64]
Result: 31
